# METHOD NOTES: Intranasal delivery of DFO (59Fe-labeled ferrioxamine), tissue concentrations by scintillation counting
# Format: in vivo, rats
# MEASUREMENT CONTEXT: rat, septal nucleus, 6 mg, intranasal ~6 mg, 25 min. after onset of delivery, read-out: DFO concentration, Septal Nucleus
# Excerpt: Following delivery, tissues were removed for analysis.
MEASUREMENT TYPE: concentration at 25 min
Lab note: write values as number then unit, every time.

Exercise: Report concentration at 25 min, nothing else, for this molecule: CC(=O)N(O)CCCCCNC(=O)CCC(=O)N(O)CCCCCNC(=O)CCC(=O)N(O)CCCCCN [DFO, deferoxamine]
Key: 2600 nM

Values were extracted from patent US7776312B2.
